Form field: % Activity (one value per entry).
- TESTED_TARGET: mouse NMUR1-ATG (Mus musculus, UniProt O55040)
- Sequence (O55040 1-428): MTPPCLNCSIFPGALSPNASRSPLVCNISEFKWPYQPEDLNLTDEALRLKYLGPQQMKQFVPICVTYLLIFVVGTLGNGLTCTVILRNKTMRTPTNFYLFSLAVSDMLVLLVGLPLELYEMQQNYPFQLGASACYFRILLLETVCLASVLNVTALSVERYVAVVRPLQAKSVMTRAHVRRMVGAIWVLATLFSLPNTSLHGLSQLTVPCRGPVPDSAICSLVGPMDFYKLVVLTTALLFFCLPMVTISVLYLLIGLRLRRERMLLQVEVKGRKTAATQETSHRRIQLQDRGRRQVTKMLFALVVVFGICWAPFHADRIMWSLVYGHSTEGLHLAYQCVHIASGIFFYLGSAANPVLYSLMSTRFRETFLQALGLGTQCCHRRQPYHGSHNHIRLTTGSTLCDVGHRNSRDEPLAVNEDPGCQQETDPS
- TEST_DESCRIPTION: FLIPR calcium mobilization assay, mouse NMUR1-ATG
- Assay type: cell-based
- Parameters: expressed in transfected cells; host or cells: FLP-In CHO or HEK-293 FLP-In cells (pcDNA5)
- COND: maximum response at 1 μM compared to hNMU-25; mouse NMUR1-ATG
No end group written: not given here.
Number only, in %; omit the unit.

>  <SUBSTANCE>
GYFLFRPRN-NH2 [NMU3]

>  <TESTED_TARGET>
mouse NMUR1-ATG (Mus musculus, UniProt O55040)

>  <ASSAY_VALUE>
100

$$$$
>  <SUBSTANCE>
Ac-C2FRVDEEFQSPFASQSRGYFLFRPRN-CONH2 [NMU9] ({Ac-C(PEG 40 kDa)}-FRVDEEFQSPFASQSRGYFLFRPRN-NH2) [C2 = Cys(PEG)240 kDa from Nektar (mPEG2-MAL-40 k)]

>  <TESTED_TARGET>
mouse NMUR1-ATG (Mus musculus, UniProt O55040)

>  <ASSAY_VALUE>
95.0

$$$$
>  <SUBSTANCE>
Ac-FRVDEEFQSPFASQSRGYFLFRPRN-NH2 [NMU2]

>  <TESTED_TARGET>
mouse NMUR1-ATG (Mus musculus, UniProt O55040)

>  <ASSAY_VALUE>
100

$$$$
>  <SUBSTANCE>
H-FRVDEEFQSPFASQSRPYFLFRPRN-NH2 [NMU4]

>  <TESTED_TARGET>
mouse NMUR1-ATG (Mus musculus, UniProt O55040)

>  <ASSAY_VALUE>
100

$$$$

Moving on to the next substance.
Task item: Return % Activity for the following substance: Ac-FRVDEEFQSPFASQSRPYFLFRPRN-NH2 [NMU5]
Reply: 100
